Settings: Crystal 2; DTA
# key: entry, value: Triple point temperature
Your answer should be a plain number; it is taken to be in K.

>>> print(df.to_string())
                                   compound  unit_descriptor  quantitative_readout
0  O=S(=O)([N-]S(=O)(=O)C(F)(F)C(F)(F)F)C(F)(F)C(F)(F)F.[Li+] [lithium bis(pentafluoroethylsulfonyl)amide]                K                   485

(Q) State the recorded Triple point temperature for this entry: O=S(=O)([N-]S(=O)(=O)C(F)(F)C(F)(F)F)C(F)(F)C(F)(F)F.[Rb+] [rubidium bis((perfluoroethyl)sulfonyl)amide]
(A) 419

(Q) State the recorded Triple point temperature for this entry: O=S(=O)([N-]S(=O)(=O)C(F)(F)C(F)(F)F)C(F)(F)C(F)(F)F.[K+] [potassium bis(pentafluoroethylsulfonyl) amide]
(A) 427

(Q) State the recorded Triple point temperature for this entry: O=S(=O)([N-]S(=O)(=O)C(F)(F)C(F)(F)F)C(F)(F)C(F)(F)F.[Na+] [sodium bis(pentafluoroethylsulfonyl)amide]
(A) 454

(Q) State the recorded Triple point temperature for this entry: O=S(=O)([N-]S(=O)(=O)C(F)(F)C(F)(F)F)C(F)(F)C(F)(F)F.[Cs+] [cesium bis((perfluoroethyl)sulfonyl)amide]
(A) 369

----------
# key: entry, value: Normal melting temperature
Conditions: Crystal; DTA
Your answer should be a plain number; it is taken to be in °C.

In [3]: df
Out[3]:
                                   molecule          measured_attribute  quantitative_readout
0  O=S(=O)([N-]S(=O)(=O)C(F)(F)C(F)(F)F)C(F)(F)C(F)(F)F.[K+] [potassium bis(pentafluoroethylsulfonyl) amide]  Normal melting temperature                   273
1  O=S(=O)([N-]S(=O)(=O)C(F)(F)C(F)(F)F)C(F)(F)C(F)(F)F.[Rb+] [rubidium bis((perfluoroethyl)sulfonyl)amide]  Normal melting temperature                   266
2  O=S(=O)([N-]S(=O)(=O)C(F)(F)C(F)(F)F)C(F)(F)C(F)(F)F.[Li+] [lithium bis(pentafluoroethylsulfonyl)amide]  Normal melting temperature                   328
3  O=S(=O)([N-]S(=O)(=O)C(F)(F)C(F)(F)F)C(F)(F)C(F)(F)F.[Na+] [sodium bis(pentafluoroethylsulfonyl)amide]  Normal melting temperature                   266

Continue with the next molecule.
(Q) State the recorded Normal melting temperature for this entry: O=S(=O)([N-]S(=O)(=O)C(F)(F)C(F)(F)F)C(F)(F)C(F)(F)F.[Cs+] [cesium bis((perfluoroethyl)sulfonyl)amide]
(A) 253

// data source = the NIST ThermoML archive (doi:10.1021/je900902z)
